Tested on: SIG-M5;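 also: cell viability assay read-out, measuring how strongly growth of cultured human SIG-M5 cells is inhibited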
procedure_summary: cells
Assay type: functional, cell-based
measurement_parameters: Homo sapiens
Description: SANGER: Inhibition of human SIG-M5 cell growth in a cell viability assay.

{"molecule": "CN(c1ncccc1CNc1nc(Nc2ccc3c(c2)CC(=O)N3)ncc1C(F)(F)F)S(C)(=O)=O [PF-00562271]", "tested_system": "SIG-M5", "readout_qualifier": "=", "IC50 [nM]": 1480}
{"molecule": "COc1cc([C@@H]2c3cc4c(cc3[C@@H](O[C@@H]3O[C@@H]5CO[C@@H](C)O[C@H]5[C@H](O)[C@H]3O)[C@H]3COC(=O)[C@H]23)OCO4)cc(OC)c1O [ETOPOSIDE]", "tested_system": "SIG-M5", "readout_qualifier": "=", "IC50 [nM]": 131}
{"molecule": "O=C(/C=C/c1ccccc1)NC(NC(=S)Nc1cccc2cccnc12)C(Cl)(Cl)Cl (stereo not given) [SALUBRINAL]", "tested_system": "SIG-M5", "readout_qualifier": ">", "IC50 [nM]": 16000}
{"molecule": "Cn1cncc1[C@@](N)(c1ccc(Cl)cc1)c1ccc2c(c1)c(-c1cccc(Cl)c1)cc(=O)n2C [TIPIFARNIB]", "tested_system": "SIG-M5", "readout_qualifier": "<", "IC50 [nM]": 62.5}
{"molecule": "COC(=O)CNC(=O)C(=O)OC", "tested_system": "SIG-M5", "readout_qualifier": "=", "IC50 [nM]": 57600}

* * *

Recorded IC50 values for a group of molecules are listed next.
Tested on: NB5;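 also: growth inhibition of NB5 cells, read out as cell viability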
procedure_summary: cells
Format: functional, cell-based, Homo sapiens
measurement_parameters: Homo sapiens, NB5
Description: SANGER: Inhibition of human NB5 cell growth in a cell viability assay.

{"given_smiles": "Cc1cc(Nc2cc(N3CCN(C)CC3)nc(Sc3ccc(NC(=O)C4CC4)cc3)n2)n[nH]1", "readout_qualifier": "=", "IC50 [µM]": 1.64}
{"given_smiles": "O=c1cc(-c2cccc3c2Sc2ccccc2S3)oc(N2CCOCC2)c1", "readout_qualifier": ">", "IC50 [µM]": 10}
{"given_smiles": "O=C(NOCC1CC1)c1ccc(F)c(F)c1Nc1ccc(I)cc1Cl", "readout_qualifier": "=", "IC50 [µM]": 4.6}
{"given_smiles": "CN(c1ncccc1CNc1nc(Nc2ccc3c(c2)CC(=O)N3)ncc1C(F)(F)F)S(C)(=O)=O", "readout_qualifier": ">", "IC50 [µM]": 2.56}

* * *

Test system: BALL-1;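 also: growth inhibition of BALL-1 cells, read out with a cell viability assay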
procedure_summary: cells
Format: functional, cell-based
measurement_parameters: Homo sapiens
Description: SANGER: Inhibition of human BALL-1 cell growth in a cell viability assay.
readout_type: IC50

{"given_smiles": "COc1ccc(-c2ccc3c(N4CCOC[C@@H]4C)nc(N4CCOC[C@@H]4C)nc3n2)cc1CO", "measured": "> 2 µM"}
{"given_smiles": "COc1ccc(C2=N[C@@H](c3ccc(Cl)cc3)[C@@H](c3ccc(Cl)cc3)N2C(=O)N2CCNC(=O)C2)c(OC(C)C)c1", "measured": "> 8 µM"}
{"given_smiles": "O=C(NOCC1CC1)c1ccc(F)c(F)c1Nc1ccc(I)cc1Cl", "measured": "> 10 µM"}

* * *

System: LK-2;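 also: growth inhibition of LK-2 cells, read out with a viability assay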
procedure_summary: cells
Type: functional, cell-based, Homo sapiens
measurement_parameters: lk-2
Description: SANGER: Inhibition of human LK-2 cell growth in a cell viability assay.
readout_type: IC50

{"given_smiles": "Cc1cc([C@@H](C)Nc2ccccc2C(=O)O)c2nc(N3CCOCC3)cc(=O)n2c1", "measured": "> 5.12 µM"}

* * *

Recorded IC50 values for a group of compounds are listed next.
System: CaR-1
procedure_summary: cells
Assay type: functional, cell-based, Homo sapiens
measurement_parameters: Homo sapiens, CaR-1
Description: SANGER: Inhibition of human CaR-1 cell growth in a cell viability assay.
readout_type: IC50

{"compound": "O=c1cc(-c2cccc3c2Sc2ccccc2S3)oc(N2CCOCC2)c1 [KU-55933]", "measured": "> 10 µM"}
{"compound": "COC(=O)CNC(=O)C(=O)OC", "measured": "220 µM"}
{"compound": "Cn1cc(C2=C(c3ccc(Cl)cc3Cl)C(=O)NC2=O)c2ccccc21 [SB-216763]", "measured": "> 10 µM"}
{"compound": "C=CCc1cccc(/C=N/NC(=O)CN2CCN(Cc3ccccc3)CC2)c1O [PAC-1]", "measured": "> 2.56 µM"}
{"compound": "CC(=O)O[C@@]12CO[C@@H]1C[C@H](O)[C@@]1(C)C(=O)[C@H](O)C3=C(C)[C@@H](OC(=O)[C@H](O)[C@@H](NC(=O)OC(C)(C)C)c4ccccc4)C[C@@](O)([C@@H](OC(=O)c4ccccc4)[C@H]21)C3(C)C [DOCETAXEL]", "measured": "0.00327 µM"}
{"compound": "CCC1=C[C@@H]2CN(C1)Cc1c([nH]c3ccccc13)[C@@](C(=O)OC)(c1cc3c(cc1OC)N(C)[C@H]1[C@@](O)(C(=O)OC)[C@H](OC(C)=O)[C@]4(CC)C=CCN5CC[C@]31[C@@H]54)C2 [VINORELBINE]", "measured": "0.0591 µM"}
{"compound": "Cn1cncc1[C@@](N)(c1ccc(Cl)cc1)c1ccc2c(c1)c(-c1cccc(Cl)c1)cc(=O)n2C [TIPIFARNIB]", "measured": "> 16 µM"}
{"compound": "COc1ccc(-c2ccc3c(N4CCOC[C@@H]4C)nc(N4CCOC[C@@H]4C)nc3n2)cc1CO [AZD-8055]", "measured": "1.75 µM"}
{"compound": "O=C1N=C(NCc2cccs2)S/C1=C\\c1ccc2ncccc2c1", "measured": "> 5 µM"}
{"compound": "CC(=O)O[C@@H]1[C@@H](OC(C)=O)[C@@H](O)[C@H](Oc2c(-c3ccc(O)cc3)oc3cc(O)cc(O)c3c2=O)O[C@H]1C", "measured": "> 10 µM"}
{"compound": "CN(C)C/C=C/C(=O)Nc1cc2c(Nc3ccc(F)c(Cl)c3)ncnc2cc1O[C@H]1CCOC1 [AFATINIB]", "measured": "> 0.5 µM"}
